Here the recorded z-score is given for each entry.
- ASSAY NAME: basal RPMI8226 viability, no added stimulus, profiling panel, cell-based, calcein-AM fluorescence, 48 h, PK04 Diversity Set (AID 1166);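 further: cells grown under basal conditions without added stimulus; test concentration not given here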
- CONDITION INFO: RPMI8226 myeloma viability, higher = more signal
MEASURED METRIC: z-score

{"columns": ["COMPOUND", "MEASURED METRIC", "DATA VALUE"],
 "data": [
  ["O=C(CS)NCCCCCCNC(=O)[C@@H]1C[C@@H]2C(=O)N3CCC[C@H]3C(=O)N2[C@@H]1c1ccc(O)cc1", "z-score", 0.412],
  ["COc1ccc(CCNC(=O)[C@@]2(Sc3ccc(C)cc3)CC(=O)N(Cc3ccccc3Cl)[C@@H]2c2ccc(CO)cc2I)cc1", "z-score", -1.54],
  ["CC(C)(C)OC(=O)CC[C@@]1(C(=O)O)N=C(c2ccc(OCCCO)cc2)O[C@@H]1c1ccccc1N=[N+]=[N-]", "z-score", -0.385],
  ["CC(C)N1CC=CC23O[C@@H]4C=CCOC(=O)[C@@H]4[C@H]2C(=O)N(CCO)[C@@H]3C1=O (stereo partly drawn)", "z-score", -0.761],
  ["COCCOC(=O)N1C(=O)[C@@]2(c3cc(C#CCC(C(=O)OC)C(=O)OC)ccc31)[C@H](C(=O)N1CCCCCCC1)[C@H]1C(=O)O[C@H](c3ccccc3)[C@H](c3ccccc3)N1[C@@H]2c1ccc(OCCO)cc1", "z-score", 0.185],
  ["NCCCCCCNC(=O)[C@H]1C[C@H]2C(=O)NCC(=O)N2[C@H]1c1cccc(OCCO)c1", "z-score", 0.554],
  ["CCCCC=C[C@@H](NC(=O)c1cccs1)c1ccccc1", "z-score", -4.69],
  ["O=C(NCc1ccccc1)[C@]1(CCS(=O)(=O)c2ccccc2)N=C(c2ccc(OCCCO)cc2)O[C@@H]1c1ccccc1", "z-score", -0.651],
  ["O=C1OCC=C[C@H]2OC34C=CCN(c5ccc(Cl)cc5)C(=O)[C@H]3N(CCCCCCO)C(=O)[C@@H]4[C@@H]12 (stereo partly drawn)", "z-score", 0.057],
  ["CS(=O)(=O)CCOC(=O)C1=CC(c2ccc(CO)cc2)=CC(C2CC2)N(Cc2cc3c(cc2Br)OCO3)C=C1C(=O)OCCS(C)(=O)=O (stereo not drawn)", "z-score", -2.41],
  ["C=C(COC)/C(=C/C[C@H](OC(=O)c1ccncc1)c1cccc(OCCO)c1)c1cc(C(=O)OC)ccc1OC", "z-score", -0.686],
  ["O=C1OCCC=C[C@H]2OC34C=CCN(Cc5ccccc5)C(=O)[C@H]3N(CCCCCO)C(=O)[C@@H]4C12 (stereo partly drawn)", "z-score", 0.593],
  ["O=C1O[C@H](c2ccccc2)[C@H](c2ccccc2)N2[C@H]1[C@@H](C(=O)NC[C@H](O)c1ccccc1)[C@]1(C(=O)Nc3ccc(C#CCCO)cc31)[C@H]2c1ccc(O)cc1", "z-score", -0.155],
  ["CCOC(=O)C[C@H]1[C@H](OC(=O)c2ccccc2-c2ccccc2)[C@@H](NC(=O)c2ccc3ccccc3c2)c2cc(OCCCO)ccc2N1C(=O)c1ccc2ccccc2n1", "z-score", -0.442],
  ["C=CCOC(=O)[C@@H]1[C@H]2C(=O)O[C@H](c3ccccc3)[C@H](c3ccccc3)N2[C@H](c2ccc(OCCOC(=O)[C@@H]3C[C@@H]4C(=O)NCC(=O)N4[C@@H]3c3cccc(OCCO)c3)cc2)[C@@]12C(=O)Nc1ccc(I)cc12", "z-score", 0.129],
  ["CC(C)N1C(=O)[C@@]2(c3ccc([N+](=O)[O-])cc3)CC(=O)N(CC34CC5CC(CC(C5)C3)C4)[C@@H]2c2ccc(CO)cc21", "z-score", 0.13],
  ["CCCNC(=O)[C@@H]1c2ccccc2C(=O)N(Cc2ccccc2)[C@H]1c1ccc(CO)cc1", "z-score", 0.502],
  ["CC1CC/C=C\\[C@H]2OC34C=CCN(Cc5ccccc5)C(=O)[C@H]3N(CCCCCO)C(=O)[C@@H]4C2C(=O)O1 (stereo partly drawn)", "z-score", 0.599],
  ["CCN(CC)c1ccc(N2CC=CC34O[C@@H]5C=CCCOC(=O)C5[C@H]3C(=O)N(CCCCCO)[C@@H]4C2=O)cc1 (stereo partly drawn)", "z-score", -0.0513],
  ["COCCOC(=O)N1C(=O)[C@@]2(c3cc(C#CCC(C(=O)OC)C(=O)OC)ccc31)[C@H](c1ccc(O)cc1)N1[C@H](c3ccccc3)[C@H](c3ccccc3)OC(=O)[C@H]1[C@@H]2C(N)=O", "z-score", -3.48],
  ["CC(C)NC(=O)[C@@H]1c2ccccc2C(=O)N(Cc2ccccc2Cl)[C@H]1c1ccc(CO)cc1", "z-score", 0.665],
  ["COCC1=C2[C@@H](CCc3ccccc3)OB(O)C[C@@H]2[C@@H]2C(=O)N(Cc3ccccc3)C(=O)[C@@H]2C1", "z-score", -0.138],
  ["Cc1cc(C)cc(N2C(=O)CS(=O)(=O)C2c2cccc([N+](=O)[O-])c2)c1 (stereo not drawn)", "z-score", 1.47],
  ["[N-]=[N+]=NCc1ccccc1[C@H]1OC(c2ccc(OCCCO)cc2)=N[C@@]1(CCS(=O)(=O)c1ccccc1)C(=O)N1CCOCC1", "z-score", 0.695],
  ["O=C1N(CCS(=O)(=O)c2ccccc2)c2ccccc2C[C@@]12COC(c1ccc(OCCCO)cc1)=N2", "z-score", -0.517],
  ["C=C(CCCC)C(=O)CC[C@H](OC(=O)c1cccnc1)c1cccc(OCCO)c1", "z-score", -2.66],
  ["COCCOC(=O)N1C(=O)[C@@]2(c3cc(C#CC4=CCCCC4)ccc31)[C@H](C(=O)N1CCc3cc(OC)c(OC)cc3C1)[C@H]1C(=O)O[C@H](c3ccccc3)[C@H](c3ccccc3)N1[C@@H]2c1ccccc1OCCO", "z-score", -1.06],
  ["CC(C)C[C@@H]1NC(=O)[C@H]2C[C@@H](C(=O)NCCCCCNC(=O)CS)[C@@H](c3cccc(OCCO)c3)N2C1=O", "z-score", -0.768]
]}

====

- TARGET UNDER TEST: Torsin-1A-interacting protein 2 (Homo sapiens) (UniProt Q8NFQ8)
- Sequence (Q8NFQ8 whole entry, looked up): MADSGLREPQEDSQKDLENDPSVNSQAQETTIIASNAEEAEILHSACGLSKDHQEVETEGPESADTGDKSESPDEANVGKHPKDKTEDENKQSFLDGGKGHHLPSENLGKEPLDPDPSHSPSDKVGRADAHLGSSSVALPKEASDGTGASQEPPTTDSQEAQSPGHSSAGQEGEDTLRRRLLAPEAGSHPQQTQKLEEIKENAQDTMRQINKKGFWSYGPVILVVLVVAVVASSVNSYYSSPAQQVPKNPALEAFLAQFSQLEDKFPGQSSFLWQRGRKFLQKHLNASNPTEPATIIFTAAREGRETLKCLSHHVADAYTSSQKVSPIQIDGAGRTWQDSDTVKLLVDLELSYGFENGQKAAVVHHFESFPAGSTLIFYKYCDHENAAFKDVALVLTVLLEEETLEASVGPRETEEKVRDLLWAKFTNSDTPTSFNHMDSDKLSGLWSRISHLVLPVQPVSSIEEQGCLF
- ASSAY NAME: LULL1 binders on small-molecule microarray, primary screen, cell lysate, human LULL1 lysate, 635/667 nm fluorescence (AID 1092);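 further: probe is lysate of COS7 cells overexpressing human LULL1; score merges per-feature 667 nm fluorescence with signal-to-noise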
- CONDITION INFO: hLULL1 lysate binding, 635 nm fluorescence, higher = more signal
Here the recorded composite z-score is given for each entry.

{"columns": ["COMPOUND", "composite z-score"],
 "data": [
  ["CC(C)C(=C=CC[C@H](O)c1cccc(OCCO)c1)C[C@H](O)COCc1ccccc1", 1.92],
  ["CCOC(=O)C[C@H]1[C@H](OC(=O)c2ccccc2-c2ccccc2)[C@@H](NC(=O)Cc2ccc(OC)cc2)c2cc(OCCCO)ccc2N1C(=O)c1ccccc1", 1.33],
  ["CCCCCN1CC=CC23O[C@@H]4/C=C\\CCC(C)OC(=O)C4[C@H]2C(=O)N(CCCCCO)[C@@H]3C1=O (some centres not stated)", -1.94],
  ["COc1ccc(C(O)C2C=CC3C(=O)NC(=O)C3N2Nc2ccccn2)cc1OCc1ccccc1 (configuration not stated)", 3.51],
  ["COCCOC(=O)N1C(=O)[C@@]2(c3ccccc31)[C@H](C(=O)NC[C@H](O)c1ccccc1)[C@H]1C(=O)O[C@H](c3ccccc3)[C@H](c3ccccc3)N1[C@@H]2c1ccc(OCCO)cc1", 2.85],
  ["C=CC(=C)C1=CCO[C@@H]1[C@H]1CCCN1S(=O)(=O)c1ccccc1[N+](=O)[O-]", 0.86],
  ["COCCOC(=O)N1C(=O)[C@@]2(c3cc(C#CCCO)ccc31)[C@H](c1ccc(O)cc1)N1[C@H](c3ccccc3)[C@H](c3ccccc3)OC(=O)[C@H]1[C@@H]2C(N)=O", 1.51]
]}

====

- TARGET UNDER TEST: Dickkopf-related protein 1 (Homo sapiens) (UniProt O94907)
- Sequence (O94907 whole entry, looked up): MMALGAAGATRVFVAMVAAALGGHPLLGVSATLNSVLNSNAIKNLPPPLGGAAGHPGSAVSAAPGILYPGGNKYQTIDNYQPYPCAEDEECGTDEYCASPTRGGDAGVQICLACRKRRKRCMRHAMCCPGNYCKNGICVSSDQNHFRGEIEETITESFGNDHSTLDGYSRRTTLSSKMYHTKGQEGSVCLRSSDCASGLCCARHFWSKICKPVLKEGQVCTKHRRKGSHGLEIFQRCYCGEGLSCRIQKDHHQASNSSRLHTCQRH
- ASSAY NAME: DKK1 binders on small-molecule microarrays, primary screen, biochemical, small-molecule microarray, 635 nm fluorescence scan (AID 1106);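 further: score merges emission near 667 nm with signal to noise over three replicate slides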
- CONDITION INFO: DKK1 binding, higher = more signal
Here the recorded composite z-score is given for each entry.

{"columns": ["COMPOUND", "composite z-score"],
 "data": [
  ["COc1ccccc1CN1C(=O)c2ccccc2[C@@H](C(=O)NCCN2CCOCC2)[C@@H]1c1ccc(CO)cc1", -0.0485],
  ["COC(=O)c1ccc(C23CC2(C(NP(=O)(c2ccccc2)c2ccccc2)c2ccccc2)C3)cc1 (configuration not stated)", -0.63],
  ["Cc1ccc(S[C@]2(C(=O)O)CC(=O)N(C3Cc4ccccc4C3)[C@@H]2c2ccc(CO)cc2I)cc1", -0.649],
  ["[N-]=[N+]=NCc1ccccc1[C@@H]1OC(c2ccc(OCCCO)cc2)=N[C@]1(Cc1ccccc1)C(=O)N1CCCCC1", 0.118],
  ["C=C(C(=O)CC[C@H](OC(C)=O)c1ccc(OCCO)cc1)C(C)C", 2.01],
  ["CCCCC=C[C@@H](NC(=O)c1cccs1)c1ccccc1", 0.13],
  ["CCOC(=O)C1=CC[C@@H](c2ccccc2)N(S(=O)(=O)c2ccc(C)cc2)[C@H]1C(=O)OCC", -0.249],
  ["O=C1OCCC=C[C@H]2OC34C=CCN(Cc5ccccc5)C(=O)[C@H]3N(CCCO)C(=O)[C@@H]4C12 (some centres not stated)", -0.179],
  ["Cc1ccc(S[C@]2(C(=O)NCC(C)C)CC(=O)N(Cc3ccccc3Cl)[C@@H]2c2ccc(CO)cc2)cc1", -1.77],
  ["Cc1ccccc1C(O)C1C=CC2C(=O)N(C)C(=O)C2N1Nc1ccccc1 (configuration not stated)", 0.0139],
  ["O=C1O[C@@H](c2ccccc2)[C@@H](c2ccccc2)N2[C@@H](c3ccccc3OCCO)[C@]3(C(=O)Nc4ccc(C#CC5(O)CCCCCC5)cc43)[C@@H](C(=O)Nc3nc4ccccc4s3)[C@H]12", 0.28],
  ["CCOC(=O)[C@H]1C/C=C/C[C@H](C(=O)OCC)C(=O)O[C@H]2[C@@H](OC)O[C@H](CO)[C@@H](OC(=O)Nc3ccc4c(c3)OCO4)[C@@H]2OC1=O", -0.009],
  ["CC(C)(C)OC(=O)CC[C@@]1(C(=O)NCCN2CCOCC2)N=C(c2ccc(OCCCO)cc2)O[C@@H]1c1ccccc1", 0.126],
  ["C[C@]1(C(=O)NCc2ccccc2)c2ccccc2C(=O)N(Cc2ccc(OC(F)(F)F)cc2)[C@H]1c1ccc(CO)cc1", -0.393],
  ["COc1ccc([Si](C)(C)[C@@H]2[C@@H](CCn3cc([C@H](O)c4ccccc4)nn3)O[C@]3(C(=O)N(Cc4ccc(N5C(=O)c6cccc7cccc5c67)cc4)c4ccccc43)[C@H]2C)cc1", -0.795],
  ["O=C1[C@]2(CO)C=C(Br)[C@@H](C[C@@H]2c2ccccc2)[C@@]12CO2", 0.357],
  ["COCCOC(=O)N1C(=O)[C@@]2(c3cc(C#CC4=CCCCC4)ccc31)[C@H](C(=O)N1CCc3cc(OC)c(OC)cc3C1)[C@H]1C(=O)O[C@H](c3ccccc3)[C@H](c3ccccc3)N1[C@@H]2c1ccccc1OCCO", 0.406]
]}
